Measured Km, listed per entry for reference.
Substrate: NC(=O)C1=CN([C@@H]2O[C@H](COP(=O)(O)OP(=O)(O)OC[C@H]3O[C@@H](n4cnc5c(N)ncnc54)[C@H](OP(=O)(O)O)[C@@H]3O)[C@@H](O)[C@H]2O)C=CC1
Experiment: purified protein, by the assay type
Conditions: other: NADPH 6-300 μM, 10 mM methylglyoxal, pH 7.5, 37° C.
quantity-measured: Km (µM)

protein: E. coli YqhD variant YqhD*(G149S A286T) (Escherichia coli K-12; A286T/G149S) (protein) MNNFNLHTPTRILFGKGAIAGLREQIPHDARVLITYGGGSVKKTGVLDQVLDALKGMDVLEFGGIEPNPAYETLMNAVKLVREQKVTFLLAVGGGSVLDGTKFIAAAANYPENIDPWHILQTGGKEIKSAIPMGCVLTLPATGSESNASAVISRKTTGDKQAFHSAHVQPVFAVLDPVYTYTLPPRQVANGVVDAFVHTVEQYVTKPVDAKIQDRFAEGILLTLIEDGPKALKEPENYDVRANVMWAATQALNGLIGAGVPQDWATHMLGHELTAMHGLDHAQTLTIVLPALWNEKRDTKRAKLLQYAERVWNITEGSDDERIDAAIAATRNFFEQLGVPTHLSDYGLDGSSIPALLKKLEEHGMTQLGENHDITLDVSRRIYEAAR
quantity-measured: Km
reported: 20

protein: E. coli YqhD variant YqhD*(G149S) (Escherichia coli K-12; G149S) (protein) MNNFNLHTPTRILFGKGAIAGLREQIPHDARVLITYGGGSVKKTGVLDQVLDALKGMDVLEFGGIEPNPAYETLMNAVKLVREQKVTFLLAVGGGSVLDGTKFIAAAANYPENIDPWHILQTGGKEIKSAIPMGCVLTLPATGSESNASAVISRKTTGDKQAFHSAHVQPVFAVLDPVYTYTLPPRQVANGVVDAFVHTVEQYVTKPVDAKIQDRFAEGILLTLIEDGPKALKEPENYDVRANVMWAATQALNGLIGAGVPQDWATHMLGHELTAMHGLDHAQTLAIVLPALWNEKRDTKRAKLLQYAERVWNITEGSDDERIDAAIAATRNFFEQLGVPTHLSDYGLDGSSIPALLKKLEEHGMTQLGENHDITLDVSRRIYEAAR
quantity-measured: Km
reported: 22

protein: Escherichia coli MG1655 YqhD, native (wild type), SEQ ID NO: 56 (Escherichia coli K-12) (protein) MNNFNLHTPTRILFGKGAIAGLREQIPHDARVLITYGGGSVKKTGVLDQVLDALKGMDVLEFGGIEPNPAYETLMNAVKLVREQKVTFLLAVGGGSVLDGTKFIAAAANYPENIDPWHILQTGGKEIKSAIPMGCVLTLPATGSESNAGAVISRKTTGDKQAFHSAHVQPVFAVLDPVYTYTLPPRQVANGVVDAFVHTVEQYVTKPVDAKIQDRFAEGILLTLIEDGPKALKEPENYDVRANVMWAATQALNGLIGAGVPQDWATHMLGHELTAMHGLDHAQTLAIVLPALWNEKRDTKRAKLLQYAERVWNITEGSDDERIDAAIAATRNFFEQLGVPTHLSDYGLDGSSIPALLKKLEEHGMTQLGENHDITLDVSRRIYEAAR
quantity-measured: Km
reported: 32
